System: HeLa Kyoto;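 further: synchronized HeLa Kyoto cells, proteins quantified by TMT10plex mass spectrometry, three biological replicates, mitosis taken 0.5 h after nocodazole release, G1/S directly after double thymidine block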
Experiment: thermal stability score vs G1/S (z-score of summed log2 fold changes over temperatures); higher = more thermally stable than in G1/S
Settings: cell cycle stage: early G1 (4.5 h after nocodazole release)
I'd be grateful if you could share measured thermal stability score for these entries.
One number for each entry.

MAAAVAAAGAGEPQSPDELLPKGDAEKPEEELEEDDDEELDETLSERLWGLTEMFPERVRSAAGATFDLSLFVAQKMYRFSRAALWIGTTSFMILVLPVVFETEKLQMEQQQQLQQRQILLGPNTGLSGGMPGALPSLPGKI [TOMM22] | -3.84

[in] What value of measured thermal stability score is listed for MPNWGGGKKCGVCQKTVYFAEEVQCEGNSFHKSCFLCMVCKKNLDSTTVAVHGEEIYCKSCYGKKYGPKGYGYGQGAGTLSTDKGESLGIKHEEAPGHRPTTNPNASKFAQKIGGSERCPRCSQAVYAAEKVIGAGKSWHKACFRCAKCGKGLESTTLADKDGEIYCKGCYAKNFGPKGFGFGQGAGALVHSE [CSRP1] ?
[out] -1.5
